Test: Biodistribution in AR42J tumor-bearing nude mice
Type: in vivo
Conditions: female, CD-1 nude, mouse, heart, iv, 1 nmol/mouse, total radioactivity, 2 h p.i., i.v. 5 MBq, read-out: Heart
quantity: tissue uptake at 2 h

Item under review: C[C@@H](O)[C@@H]1NC(=O)[C@H](CCCCN)NC(=O)[C@@H](Cc2c[nH]c3ccccc23)NC(=O)[C@H](Cc2ccc(O)cc2)NC(=O)[C@@H](NC(=O)[C@@H](Cc2ccccc2)NC(=O)CN2CCN(CC(=O)O)CCN(CC(=O)O)CCN(CC(=O)O)CC2)CSSC[C@@H](C(=O)N[C@H](CO)[C@@H](C)O)NC1=O [[^161Tb]Tb-DOTATOC, metal not drawn] . Reported tissue uptake at 2 h?
≤ 0.1 %ID/g

###

Test: Biodistribution in AR42J tumor-bearing nude mice
Assay type: in vivo
Conditions: female, CD-1 nude, mouse, spleen, iv, 1 nmol/mouse, total radioactivity, 24 h p.i., i.v. 5 MBq, read-out: Spleen
quantity: tissue uptake at 24 h

Query (compound): C[C@@H](O)[C@@H]1NC(=O)[C@H](CCCCN)NC(=O)[C@@H](Cc2c[nH]c3ccccc23)NC(=O)[C@H](Cc2ccc(O)cc2)NC(=O)[C@@H](NC(=O)[C@@H](Cc2ccccc2)NC(=O)CN2CCN(CC(=O)O)CCN(CC(=O)O)CCN(CC(=O)O)CC2)CSSC[C@@H](C(=O)N[C@H](CO)[C@@H](C)O)NC1=O [[^161Tb]Tb-DOTATOC, metal not drawn] ; field requested: tissue uptake at 24 h
≤ 0.1 %ID/g

###

Assay: Biodistribution in AR42J tumor-bearing nude mice
Type: in vivo
Details: female, CD-1 nude, mouse, femur, iv, 1 nmol/mouse, total radioactivity, 2 h p.i., i.v. 5 MBq, read-out: Femur
quantity: tissue uptake at 2 h

Entry C[C@@H](O)[C@@H]1NC(=O)[C@H](CCCCN)NC(=O)[C@@H](Cc2c[nH]c3ccccc23)NC(=O)[C@H](Cc2ccc(O)cc2)NC(=O)[C@@H](NC(=O)[C@@H](Cc2ccccc2)NC(=O)CN2CCN(CC(=O)O)CCN(CC(=O)O)CCN(CC(=O)O)CC2)CSSC[C@@H](C(=O)N[C@H](CO)[C@@H](C)O)NC1=O [[^161Tb]Tb-DOTATOC, metal not drawn] : reported tissue uptake at 2 h = ?
≤ 0.1 %ID/g
